B1: CPEB3 Ribozyme (parent)
chain: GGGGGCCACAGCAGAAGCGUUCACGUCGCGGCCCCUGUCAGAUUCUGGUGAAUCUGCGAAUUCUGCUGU

Variants of: B1
assay remarks: self-cleavage, relative activity (ratio to wild type); higher = more cleavage; co-transcriptional
# label = YES if self-cleavage >= 0.4 else NO

residue change	assigned class
C12A U20C	NO
G17A G48C	YES
A15C U53A	YES

Say whether G58U A59C shows self-cleavage of 0.4 or more.
YES

Subsequent entry: U20G U62A
NO

Subsequent entry: C7G A8C
YES

Subsequent entry: C18U C33U
YES

Attribution: the RNAGym collection of RNA variant scans (doi:10.7554/elife.80360)
